Cited source: patent US20200317776A1

Catalogue of log10 of MFI readings, one per entry.
# TGT: T1, human TREM2 expressed on cells (human, UniProt Q9NZC2 19-230)
# T1 construct: BW5147.G.1.4 cells stably expressing human TREM2 together with Dap12, or endogenous TREM2 of primary human myeloid cells; also called huT2 BW; hTREM2 expressing cell line
# T1 sequence: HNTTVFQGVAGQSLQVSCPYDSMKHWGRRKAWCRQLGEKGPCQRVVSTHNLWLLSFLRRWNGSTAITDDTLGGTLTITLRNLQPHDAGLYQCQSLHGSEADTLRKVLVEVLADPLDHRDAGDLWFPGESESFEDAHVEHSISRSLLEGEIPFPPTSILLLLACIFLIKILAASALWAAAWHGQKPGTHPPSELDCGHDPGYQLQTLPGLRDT
# EXPERIMENTAL DETAILS: FACS, human DCs; note: test concentration or dose not given here
TEST READOUT: log10 of MFI (log10 of the value in MFI)

| BINDER | VAL |
| --- | --- |
| AL2p-37 (antibody, IgG1, V domains shown, Fab and IgG formats under one id; also called AL2p-37 huIgG1) VH: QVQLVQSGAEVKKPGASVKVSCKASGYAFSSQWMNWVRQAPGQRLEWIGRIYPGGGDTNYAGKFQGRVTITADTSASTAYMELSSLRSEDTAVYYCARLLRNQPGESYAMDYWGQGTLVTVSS VL: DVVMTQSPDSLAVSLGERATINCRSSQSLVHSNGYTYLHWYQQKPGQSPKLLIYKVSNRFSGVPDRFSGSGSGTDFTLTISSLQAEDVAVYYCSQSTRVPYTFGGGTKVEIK | 2.29 |
| AL2p-38 (antibody, V domains shown, Fab and IgG formats under one id) VH: QVQLVQSGAEVKKPGSSVKVSCKASGYAFSSHWMNWVRQAPGQGLEWMGRIYPGGGDTNYAQKFRGRVTITADESTSTAYMELSSLRSEDTAVYYCARLLRNQPGASYAMDYWGQGTLVTVSS VL: GVVMTQTPLSLSVTPGQPASISCRSSRSLVHSNRYTYLHWYLQKPGQSPQLLIYKVSNRRSGVPDRFSGSGSGTDFTLKISRVEAEDVGVYYCSQSTRVPYTFGQGTKLEIK | 2.70 |
| AL2p-43 (antibody, V domains shown, Fab and IgG formats under one id) VH: QVQLVQSGAEVKKPGSSVKVSCKASGYAFSSHWMNWVRQAPGQGLEWMGRIYPGGGDTNYARKFRGRVTITADESTSTAYMELSSLRSEDTAVYYCARLLRNQPGASYAMDYWGQGTLVTVSS VL: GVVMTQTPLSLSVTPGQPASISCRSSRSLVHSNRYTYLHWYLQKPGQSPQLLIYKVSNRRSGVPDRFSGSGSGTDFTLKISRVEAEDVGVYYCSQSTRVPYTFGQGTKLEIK | 3.02 |
| AL2p-53 (antibody, V domains shown, Fab and IgG formats under one id) VH: EVQLVQSGAEVKKPGSSVKVSCKASGYAFSSHWMNWVRQAPGQGLEWMGRIYPGEGDTNYAQKFHGRVTITADESTSTAYMELSSLRSEDTAVYYCARLLRNQPGESYAMDYWGQGTLVTVSS VL: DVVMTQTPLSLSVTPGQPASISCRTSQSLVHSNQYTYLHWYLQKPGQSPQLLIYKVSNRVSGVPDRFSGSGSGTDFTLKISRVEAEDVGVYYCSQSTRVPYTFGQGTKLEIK | 2.20 |
| AL2p-26 (antibody, V domains shown, Fab and IgG formats under one id) VH: QVQLVQSGAEVKKPGSSVKVSCKASGYAFSSHWMNWVRQAPGQGLEWMGRIYPGGGDTNYAQKRQGRVTITADESTSTAYMELSSLRSEDTAVYYCARLLRNQPGESYAMDYWGQGTLVTVSS VL: GVVMTQTPLSLSVTPGQPASISCRSSQSLIHSNGYTYLHWYLQKPGQSPQLLIYKVSNRRSGVPDRFSGSGSGTDFTLKISRVEAEDVGVYYCSQSTRVPYTFGQGTKLEIK | 2.47 |
| AL2p-31 (antibody, V domains shown, Fab and IgG formats under one id) VH: QVQLVQSGAEVKKPGSSVKVSCKASGYAFSSQWMNWVRQAPGQGLEWMGRIYPGGGDTNYARKFQGRVTITADESTSTAYMELSSLRSEDTAVYYCARLLRNQPGESYAMDYWGQGTLVTVSS VL: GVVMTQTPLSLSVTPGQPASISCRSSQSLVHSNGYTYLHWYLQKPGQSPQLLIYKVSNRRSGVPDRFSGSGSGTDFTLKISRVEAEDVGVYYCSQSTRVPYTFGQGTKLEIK | 2.46 |
| AL2p-36 (antibody, V domains shown, Fab and IgG formats under one id) VH: QVQLVQSGAEVKKPGASVKVSCKASGYAFSSSWMNWVRQAPGQRLEWIGRIYPGDGDTNYARKFQGRVTITADTSASTAYMELSSLRSEDTAVYYCARLLRNQPGASYAMDYWGQGTLVTVSS VL: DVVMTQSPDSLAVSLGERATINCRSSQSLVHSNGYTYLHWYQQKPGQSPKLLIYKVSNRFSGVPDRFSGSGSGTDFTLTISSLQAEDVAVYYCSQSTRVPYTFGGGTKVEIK | 2.38 |
| AL2p-57 (antibody, V domains shown, Fab and IgG formats under one id) VH: EVQLVQSGAEVKKPGSSVKVSCKASGYAFSSHWMNWVRQAPGQGLEWMGRIYPGEGDTNYAQKFHGRVTITADESTSTAYMELSSLRSEDTAVYYCARLLRNKPGESYAMDYWGQGTLVTVSS VL: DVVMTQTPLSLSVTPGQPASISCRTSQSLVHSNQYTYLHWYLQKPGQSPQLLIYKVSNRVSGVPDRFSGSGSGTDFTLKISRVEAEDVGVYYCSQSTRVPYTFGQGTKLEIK | 2.18 |
| AL2p-h50 (antibody, human IgG1, V domains shown, humanized, human IgG1; Fab and IgG formats under one id) VH: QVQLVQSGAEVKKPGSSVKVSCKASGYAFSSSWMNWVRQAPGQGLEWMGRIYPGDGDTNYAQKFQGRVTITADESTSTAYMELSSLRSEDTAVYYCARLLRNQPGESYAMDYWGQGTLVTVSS VL: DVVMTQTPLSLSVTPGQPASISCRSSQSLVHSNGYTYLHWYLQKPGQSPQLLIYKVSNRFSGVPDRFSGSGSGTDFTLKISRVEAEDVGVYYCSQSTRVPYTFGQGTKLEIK | 1.41 |
| AL2p-40 (antibody, IgG1, V domains shown, Fab and IgG formats under one id) VH: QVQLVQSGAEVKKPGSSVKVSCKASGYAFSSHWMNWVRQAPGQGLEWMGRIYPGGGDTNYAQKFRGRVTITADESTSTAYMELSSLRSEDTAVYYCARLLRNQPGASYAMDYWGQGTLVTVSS VL: GVVMTQTPLSLSVTPGQPASISCRTSRSLVHSNRYTYLHWYLQKPGQSPQLLIYKVSNRRSGVPDRFSGSGSGTDFTLKISRVEAEDVGVYYCSQSTRVPYTFGQGTKLEIK | 2.74 |
